# Test system: S. cerevisiae Burl-1 ts mutant growth, BacTiter-Glo, 38.5C 24 h
# assaySummary: restored growth of temperature-sensitive Burl-1 yeast – whole organism, S. cerevisiae, Burl-1 ts mutant, luminescence, counter-screen for SUMOylation pathway inhibitor project, dose response (AID 463199)
The source made the active and inactive calls.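 The calls were made as follows: active = AC50, the dose giving half-maximal effect, exceeds a fixed cutoff for a compound that rescues yeast growth under heat; inactive = the rest, inconclusive results apart.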
Entries and their AC50 values follow.

>  <compound>
Cc1cc(CNC(=O)C2CCC(=O)N(Cc3ccccc3F)C2)on1 (stereo unspecified)

>  <AC50>
> 42 µM (inactive)

$$$$
>  <compound>
CCCCN(C(=O)C1=COCCO1)c1c(N)n(Cc2ccccc2)c(=O)[nH]c1=O

>  <AC50>
> 42 µM (inactive)

$$$$
>  <compound>
COc1cc(OC)cc(OC(=O)c2ccc3c(=O)n4c(nc3c2)CCC4)c1

>  <AC50>
> 42 µM (inactive)

$$$$
>  <compound>
C=C1C2C[C@@]3([C@@H]1O)[C@@H](C[C@@H]2O)[C@@]12C4[C@@H]3C[C@@H]1[C@@](C)(CC[C@@H]2O)CN4CC

>  <AC50>
> 42 µM (inactive)

$$$$
>  <compound>
CCNC(=S)NNC(=O)c1ccc(=O)n(Cc2ccccc2)c1

>  <AC50>
> 42 µM (inactive)

$$$$
>  <compound>
Cc1cccc(OCc2nnc(SCC(=O)N3c4ccccc4CC3C)n2C)c1C (stereo unspecified)

>  <AC50>
> 42 µM (inactive)

$$$$
>  <compound>
O=C(CSc1nc2ncccc2[nH]1)NC1CCCCC1

>  <AC50>
> 42 µM (inactive)

$$$$
>  <compound>
COCC(=O)n1nc(NCc2ccc(OC)cc2)nc1NCc1ccc(OC)cc1

>  <AC50>
> 42 µM (inactive)

$$$$
>  <compound>
O=C(COc1ccccc1)Nc1cccc(-c2nnc(-c3ccccc3)o2)c1

>  <AC50>
> 42 µM (inactive)

$$$$
>  <compound>
CN(C(=O)C1CCCO1)c1nnc(-c2cnccn2)s1 (stereo unspecified)

>  <AC50>
> 42 µM (inactive)

$$$$
>  <compound>
O=C(CN1CCN(c2ccccc2F)CC1)Nc1nnc(C(F)(F)F)s1

>  <AC50>
> 42 µM (inactive)

$$$$
>  <compound>
O=C(NCc1csc(-c2cccs2)n1)Nc1ccc(F)cc1F

>  <AC50>
> 42 µM (inactive)

$$$$
>  <compound>
COc1ccc2c(c1)[C@H]1[C@H](CO2)[C@H](c2ccccc2)[C@]2(C)C(=O)Nc3ccc(F)cc3C(=O)N12

>  <AC50>
> 42 µM (inactive)

$$$$
>  <compound>
Cc1ccc(N(C(=O)Cn2nnc3ccccc32)C(C(=O)NC2CCCCC2)c2cn(C)nc2C)cc1 (stereo unspecified)

>  <AC50>
> 21 µM (inactive)

$$$$
>  <compound>
Cc1ccc(NC(=O)C(=O)NCC2CCCN2S(=O)(=O)c2cccs2)cc1 (stereo unspecified)

>  <AC50>
> 42 µM (inactive)

$$$$
>  <compound>
Cc1cc(C)nc(-n2nc(C)cc2NC(=O)CNCc2ccccc2)n1

>  <AC50>
> 42 µM (inactive)

$$$$
